Record form. Attribute: binding relative to wild-type Fc. Fill in for each entry.
- Assayed system: T1, CD16A V158 (human, UniProt P08637 17-208, limits assumed)
- T1 construct: construct not described
- T1 sequence (P08637 17-208 F176V limits assumed): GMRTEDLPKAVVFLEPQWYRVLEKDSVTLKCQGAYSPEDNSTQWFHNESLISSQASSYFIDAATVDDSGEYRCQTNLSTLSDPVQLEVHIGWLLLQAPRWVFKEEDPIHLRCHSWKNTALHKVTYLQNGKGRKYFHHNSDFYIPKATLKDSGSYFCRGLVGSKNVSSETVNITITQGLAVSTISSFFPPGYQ
- Experiment notes: method not stated at Table 3
Hi! Could you send only the number? It should be in fold, unit omitted.

What value of measured binding relative to wild-type Fc is listed for Fc mutant 13: F243L R292P V305I (other, UniProt P01857-1 104-330, looked up, domain: Fc) DKTHTCPPCPAPELLGGPSVFLLPPKPKDTLMISRTPEVTCVVVDVSHEDPEVKFNWYVDGVEVHNAKTKPPEEQYNSTYRVVSILTVLHQDWLNGKEYKCKVSNKALPAPIEKTISKAKGQPREPQVYTLPPSRDELTKNQVSLTCLVKGFYPSDIAVEWESNGQPENNYKTTPPVLDSDGSFFLYSKLTVDKSRWQQGNVFSCSVMHEALHNHYTQKSLSLSPGK ?
2.56

What value of measured binding relative to wild-type Fc is listed for Fc mutant 18: F243L R292P Y300L V305I P396L (other, UniProt P01857-1 104-330, looked up, domain: Fc; Same substitutions as the Fc of ch4D5-FcMT1) DKTHTCPPCPAPELLGGPSVFLLPPKPKDTLMISRTPEVTCVVVDVSHEDPEVKFNWYVDGVEVHNAKTKPPEEQYNSTLRVVSILTVLHQDWLNGKEYKCKVSNKALPAPIEKTISKAKGQPREPQVYTLPPSRDELTKNQVSLTCLVKGFYPSDIAVEWESNGQPENNYKTTPLVLDSDGSFFLYSKLTVDKSRWQQGNVFSCSVMHEALHNHYTQKSLSLSPGK ?
10.1

What value of measured binding relative to wild-type Fc is listed for Fc variant F243L P247L D270E N421K (other, UniProt P01857-1 104-330, looked up, domain: Fc) DKTHTCPPCPAPELLGGPSVFLLPPKLKDTLMISRTPEVTCVVVDVSHEEPEVKFNWYVDGVEVHNAKTKPREEQYNSTYRVVSVLTVLHQDWLNGKEYKCKVSNKALPAPIEKTISKAKGQPREPQVYTLPPSRDELTKNQVSLTCLVKGFYPSDIAVEWESNGQPENNYKTTPPVLDSDGSFFLYSKLTVDKSRWQQGKVFSCSVMHEALHNHYTQKSLSLSPGK ?
2.3

What value of measured binding relative to wild-type Fc is listed for Fc mutant 15: R292P V305I P396L (other, UniProt P01857-1 104-330, looked up, domain: Fc) DKTHTCPPCPAPELLGGPSVFLFPPKPKDTLMISRTPEVTCVVVDVSHEDPEVKFNWYVDGVEVHNAKTKPPEEQYNSTYRVVSILTVLHQDWLNGKEYKCKVSNKALPAPIEKTISKAKGQPREPQVYTLPPSRDELTKNQVSLTCLVKGFYPSDIAVEWESNGQPENNYKTTPLVLDSDGSFFLYSKLTVDKSRWQQGNVFSCSVMHEALHNHYTQKSLSLSPGK ?
1.85

What value of measured binding relative to wild-type Fc is listed for Fc variant D270E P396L Q419H (other, UniProt P01857-1 104-330, looked up, domain: Fc) DKTHTCPPCPAPELLGGPSVFLFPPKPKDTLMISRTPEVTCVVVDVSHEEPEVKFNWYVDGVEVHNAKTKPREEQYNSTYRVVSVLTVLHQDWLNGKEYKCKVSNKALPAPIEKTISKAKGQPREPQVYTLPPSRDELTKNQVSLTCLVKGFYPSDIAVEWESNGQPENNYKTTPLVLDSDGSFFLYSKLTVDKSRWQHGNVFSCSVMHEALHNHYTQKSLSLSPGK ?
1.64

What value of measured binding relative to wild-type Fc is listed for Fc mutant 17: F243L R292P V305I P396L (other, UniProt P01857-1 104-330, looked up, domain: Fc) DKTHTCPPCPAPELLGGPSVFLLPPKPKDTLMISRTPEVTCVVVDVSHEDPEVKFNWYVDGVEVHNAKTKPPEEQYNSTYRVVSILTVLHQDWLNGKEYKCKVSNKALPAPIEKTISKAKGQPREPQVYTLPPSRDELTKNQVSLTCLVKGFYPSDIAVEWESNGQPENNYKTTPLVLDSDGSFFLYSKLTVDKSRWQQGNVFSCSVMHEALHNHYTQKSLSLSPGK ?
5.37

What value of measured binding relative to wild-type Fc is listed for Fc variant R255L D270E P396L (other, UniProt P01857-1 104-330, looked up, domain: Fc) DKTHTCPPCPAPELLGGPSVFLFPPKPKDTLMISLTPEVTCVVVDVSHEEPEVKFNWYVDGVEVHNAKTKPREEQYNSTYRVVSVLTVLHQDWLNGKEYKCKVSNKALPAPIEKTISKAKGQPREPQVYTLPPSRDELTKNQVSLTCLVKGFYPSDIAVEWESNGQPENNYKTTPLVLDSDGSFFLYSKLTVDKSRWQQGNVFSCSVMHEALHNHYTQKSLSLSPGK ?
1.34

What value of measured binding relative to wild-type Fc is listed for Fc variant F243L P247L N421K (other, UniProt P01857-1 104-330, looked up, domain: Fc) DKTHTCPPCPAPELLGGPSVFLLPPKLKDTLMISRTPEVTCVVVDVSHEDPEVKFNWYVDGVEVHNAKTKPREEQYNSTYRVVSVLTVLHQDWLNGKEYKCKVSNKALPAPIEKTISKAKGQPREPQVYTLPPSRDELTKNQVSLTCLVKGFYPSDIAVEWESNGQPENNYKTTPPVLDSDGSFFLYSKLTVDKSRWQQGKVFSCSVMHEALHNHYTQKSLSLSPGK ?
1.89

The origin of these recorded values is patent US20240131162A1.
